# System: isolated rabbit thoracic aorta preparations
# Protocol Notes: Study on vascular tone: vasorelaxation of noradrenaline-precontracted aortic rings
# Assay type: cell-based
# Measurement Parameters: Oryctolagus cuniculus; concentration giving 50% reversal of NA (1 μM) contraction; rabbit thoracic aorta rings with functional endothelium; read-out: IC50 (μM) ± sem
Where a name gives a salt, the structure may show the parent alone.
Property Name: IC50 (µM)

compound="CCOC(=O)[C@H](CCc1ccccc1)N[C@@H](C)C(=O)N1CCC[C@H]1C(=O)OCCCO[N+](=O)[O-].O=C(O)/C=C\\C(=O)O [Compound of Ex. 3, maleate]" endpoint_value=30.9
compound="C[C@H](N[C@@H](CCc1ccccc1)C(=O)OCCCO[N+](=O)[O-])C(=O)N1CCC[C@H]1C(=O)O [Compound of Ex. 1, hydrochloride]" endpoint_value=21.9
